Test system: Providencia rettgeri
assay-name: Antibacterial activity against non-gentamicin-resistant Proteus rettgeri clinical isolate assessed as susceptible isolates after 18 hrs by agar dilution method
Assay type: functional
For each record, write down the corresponding Activity.
Give bare numbers, in %.

Take each entry in turn and give its Activity.
1. CCN[C@@H]1C[C@H](N)[C@@H](O[C@H]2OC(CN)=CC[C@H]2N)[C@H](O)[C@H]1O[C@H]1OC[C@](C)(O)[C@H](NC)[C@H]1O [NETILMICIN]
2. NCC[C@H](O)C(=O)N[C@@H]1C[C@H](N)[C@@H](O[C@H]2O[C@H](CN)[C@@H](O)[C@H](O)[C@H]2O)[C@H](O)[C@H]1O[C@H]1O[C@H](CO)[C@@H](O)[C@H](N)[C@H]1O [AMIKACIN]
3. CN[C@@H]1[C@@H](O)[C@@H](O[C@@H]2[C@@H](O)[C@H](O[C@@H]3OC(C(C)N)=CC[C@@H]3N)[C@@H](N)C[C@H]2N)OC[C@]1(C)O (some centres undefined) [VERDAMICIN]
4. CCN[C@@H]1C[C@H](N)[C@@H](O[C@@H]2OC(C(C)N)=CC[C@@H]2N)[C@H](O)[C@H]1O[C@H]1OC[C@](C)(O)[C@H](NC)[C@H]1O (some centres undefined) [VERTILMICIN]

Result:
[92.3, 84.6, 100, 92.3]

====

System: Escherichia coli
assay-name: Antibacterial activity against gentamicin-resistant Escherichia coli clinical isolate after 18 hrs by agar dilution method
Type: functional
attribute-measured: MIC90 (µg/mL)
Give bare numbers, in µg/mL.

In the examples that follow, each entry is paired with its recorded MIC90.
Problem: Answer with reported MIC90 of CCN[C@@H]1C[C@H](N)[C@@H](O[C@@H]2OC(C(C)N)=CC[C@@H]2N)[C@H](O)[C@H]1O[C@H]1OC[C@](C)(O)[C@H](NC)[C@H]1O (some centres undefined) [VERTILMICIN]
Result: 64

Problem: Answer with reported MIC90 of CN[C@@H]1[C@@H](O)[C@@H](O[C@@H]2[C@@H](O)[C@H](O[C@@H]3OC(C(C)N)=CC[C@@H]3N)[C@@H](N)C[C@H]2N)OC[C@]1(C)O (some centres undefined) [VERDAMICIN]
Result: 128

Problem: Answer with reported MIC90 of CCN[C@@H]1C[C@H](N)[C@@H](O[C@H]2OC(CN)=CC[C@H]2N)[C@H](O)[C@H]1O[C@H]1OC[C@](C)(O)[C@H](NC)[C@H]1O [NETILMICIN]
Result: 64

Now look at this one.
Problem: Answer with reported MIC90 of NCC[C@H](O)C(=O)N[C@@H]1C[C@H](N)[C@@H](O[C@H]2O[C@H](CN)[C@@H](O)[C@H](O)[C@H]2O)[C@H](O)[C@H]1O[C@H]1O[C@H](CO)[C@@H](O)[C@H](N)[C@H]1O [AMIKACIN]
Result: 4

====

System: Proteus mirabilis
assay-name: Antibacterial activity against non-gentamicin-resistant Proteus mirabilis clinical isolate after 18 hrs by agar dilution method
Assay type: functional
For each record, write down the corresponding MIC50.
Answers are plain numbers, in µg/mL.

Take each entry in turn and give its MIC50.
1. CCN[C@@H]1C[C@H](N)[C@@H](O[C@H]2OC(CN)=CC[C@H]2N)[C@H](O)[C@H]1O[C@H]1OC[C@](C)(O)[C@H](NC)[C@H]1O
2. CN[C@@H]1[C@@H](O)[C@@H](O[C@@H]2[C@@H](O)[C@H](O[C@@H]3OC(C(C)N)=CC[C@@H]3N)[C@@H](N)C[C@H]2N)OC[C@]1(C)O (some centres undefined)
3. NCC[C@H](O)C(=O)N[C@@H]1C[C@H](N)[C@@H](O[C@H]2O[C@H](CN)[C@@H](O)[C@H](O)[C@H]2O)[C@H](O)[C@H]1O[C@H]1O[C@H](CO)[C@@H](O)[C@H](N)[C@H]1O
4. CCN[C@@H]1C[C@H](N)[C@@H](O[C@@H]2OC(C(C)N)=CC[C@@H]2N)[C@H](O)[C@H]1O[C@H]1OC[C@](C)(O)[C@H](NC)[C@H]1O (some centres undefined)

Result:
1
1
2
1
